B1: TPR t1 (parent)
chain: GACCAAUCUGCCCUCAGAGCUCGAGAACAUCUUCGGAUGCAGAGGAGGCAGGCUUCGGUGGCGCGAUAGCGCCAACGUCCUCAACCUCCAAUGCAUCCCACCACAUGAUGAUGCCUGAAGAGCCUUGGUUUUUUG

variants of: B1; experiment: polymerase ribozyme fitness, log enrichment relative to wild type (log ratio); higher = more active; in vitro selection for triplet polymerase activity
For each record, write down the corresponding polymerase ribozyme fitness (log ratio).

So, C8G C85U ? Its polymerase ribozyme fitness (log ratio) was -0.269

polymerase ribozyme fitness (log ratio) for U9C U96A is 0.079

Sample G51U G61A C64U U125G ; polymerase ribozyme fitness (log ratio) observed: -6.13

Please fill in: polymerase ribozyme fitness (log ratio) reported for C11U G47A G71C C86U = -0.929

Entry C56A A83U — recorded polymerase ribozyme fitness (log ratio) = -1.62

Entry under test: G42A C53U . Its polymerase ribozyme fitness (log ratio) was -2.41

Reported polymerase ribozyme fitness (log ratio) of C3G C102U C123A : -2.99

Reported polymerase ribozyme fitness (log ratio) ( A6G G47A C53U U59C ) = -1.37

get_value(item= C72U U96G , readout=polymerase ribozyme fitness (log ratio)) returns -1.42

According to the records, this variant U21G A24G displays polymerase ribozyme fitness (log ratio) of -2.02

The recorded polymerase ribozyme fitness (log ratio) for entry C3G A24G equals -3.73

The variant G113A C115U showed polymerase ribozyme fitness (log ratio) equal to -3.6

The variant identified as C11U C22U registered its polymerase ribozyme fitness (log ratio) at -4.2
